Consider the following compounds; for each one, report its IC50.
- target entity: Interleukin-8 (Homo sapiens, UniProt P10145)
- Sequence (P10145 whole entry): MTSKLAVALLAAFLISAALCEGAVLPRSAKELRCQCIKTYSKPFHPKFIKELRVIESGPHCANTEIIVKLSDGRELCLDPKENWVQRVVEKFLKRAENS
- experiment notes: Dose Response confirmation of uHTS small molecule hits for cystic fibrosis induced NFkb Inhibitors in a PAF-induced IL8 counterscreen.
- Format: functional
- stated conditions: read-out: IC50_Mean
Calls of active or inactive are those of the source.

For every item in the list below, what is its measured IC50?
1. Cc1ccc(/N=C/c2cc3c(cc2O)OC(N)=C(C#N)C3c2ccccc2)cc1 (centres undefined)
2. CCc1cc(-c2n[nH]cc2-c2ccc(OC)cc2)c(O)cc1O
3. O=C(CC12CC3CC(CC(C3)C1)C2)Nc1nncs1
4. CCC1(O)C(=O)OCc2c1cc1n(c2=O)Cc2cc3cc(O)ccc3nc2-1 (centres undefined)

1. 5.76 µM (active)
2. 6.31 µM (active)
3. 9.42 µM (active)
4. 3 µM (active)

* * *

- target entity: Protein skinhead-1 (Caenorhabditis elegans, UniProt P34707)
- Sequence (P34707 whole entry): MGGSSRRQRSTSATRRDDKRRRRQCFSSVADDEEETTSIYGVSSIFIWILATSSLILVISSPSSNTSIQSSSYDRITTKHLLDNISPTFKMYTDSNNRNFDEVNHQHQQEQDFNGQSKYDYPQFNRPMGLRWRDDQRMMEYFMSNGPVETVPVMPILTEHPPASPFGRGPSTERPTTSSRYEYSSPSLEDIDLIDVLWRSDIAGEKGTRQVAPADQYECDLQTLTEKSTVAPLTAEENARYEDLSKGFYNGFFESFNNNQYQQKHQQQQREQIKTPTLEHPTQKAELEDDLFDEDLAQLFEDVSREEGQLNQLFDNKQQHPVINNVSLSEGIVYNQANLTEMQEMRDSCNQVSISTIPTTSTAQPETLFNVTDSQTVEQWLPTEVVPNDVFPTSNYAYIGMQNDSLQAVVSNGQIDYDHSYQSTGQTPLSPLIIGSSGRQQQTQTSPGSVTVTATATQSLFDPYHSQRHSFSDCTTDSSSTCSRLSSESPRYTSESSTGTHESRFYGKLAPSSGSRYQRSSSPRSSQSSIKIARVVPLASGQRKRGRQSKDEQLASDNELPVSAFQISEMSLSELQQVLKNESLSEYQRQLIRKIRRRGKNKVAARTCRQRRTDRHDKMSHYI
- Assay type: functional
Active and inactive are the calls of the source.
readout: IC50

Sample answers from the record:
[
  {
    "molecule": "CC(C)(C)OC(=O)NCC12C=CC(O1)C1C(=O)N(Cc3ccccc3)C(=O)C12 (stereo not drawn)",
    "IC50": "> 100 µM (inactive)"
  },
  {
    "molecule": "CC1=C(C(=O)OCC2CCCO2)C(c2ccccc2OC(C)C)C2=C(O)CC(c3ccco3)CC2=N1 (stereo not drawn)",
    "IC50": "> 100 µM (inactive)"
  },
  {
    "molecule": "COc1ccc(CCNC(=O)COc2nsnc2N2CCOCC2)cc1OC",
    "IC50": "> 100 µM (inactive)"
  }
]

For every item in the list below, what is its measured IC50?
1. COc1ccc2c(c1)c(C(O)CN1CCN(Cc3ccc4c(c3)OCO4)CC1)c(C)n2C (stereo not drawn)
2. Cc1cc(Cl)cc(C)c1OCCCCN1CCOCC1
3. CC1=NN(Cc2ccccc2)C(=O)/C1=C\c1ccc(N(C)C)cc1
4. Cc1ccc(-c2nc(-c3ccncc3)no2)c(C)c1

1. > 100 µM (inactive)
2. 38.9 µM (active)
3. > 100 µM (inactive)
4. 40.9 µM (active)

* * *

- experiment notes: inhibitors of SNCA 5'UTR-driven reporter translation, confirmation, H4 neuroglioma cells, luminescence (AID 1988)
- Format: functional, cell-based
Calls of active or inactive are those of the source.
Consider the following molecules; for each one, report its EC50.

[
  {
    "molecule": "COCC(C)n1c(SCc2cc(=O)n3cc(C)ccc3n2)nc2ccccc2c1=O (centres undefined)",
    "EC50": "> 120 µM (not active)"
  },
  {
    "molecule": "Cc1ccc2c(c1)cc1c(=O)n(CC(=O)NCc3ccccn3)nc(C)n12",
    "EC50": "> 120 µM (not active)"
  },
  {
    "molecule": "NCCCn1c(C(=O)c2cc(Cl)c(N)c(Cl)c2)c2ccc([N+](=O)[O-])cc2[n+]1[O-]",
    "EC50": "2.06 µM (active)"
  }
]

// below: EC50 requested for another molecule
The molecule Cc1cc(=O)n2c(c1C#N)SC1CCCCC12O (centres undefined) showed EC50 equal to > 120 µM (not active)

* * *

Each entry below carries its measured AC50, system: Cytochrome P450 2C9 (Homo sapiens).
Sequence (P11712 whole entry): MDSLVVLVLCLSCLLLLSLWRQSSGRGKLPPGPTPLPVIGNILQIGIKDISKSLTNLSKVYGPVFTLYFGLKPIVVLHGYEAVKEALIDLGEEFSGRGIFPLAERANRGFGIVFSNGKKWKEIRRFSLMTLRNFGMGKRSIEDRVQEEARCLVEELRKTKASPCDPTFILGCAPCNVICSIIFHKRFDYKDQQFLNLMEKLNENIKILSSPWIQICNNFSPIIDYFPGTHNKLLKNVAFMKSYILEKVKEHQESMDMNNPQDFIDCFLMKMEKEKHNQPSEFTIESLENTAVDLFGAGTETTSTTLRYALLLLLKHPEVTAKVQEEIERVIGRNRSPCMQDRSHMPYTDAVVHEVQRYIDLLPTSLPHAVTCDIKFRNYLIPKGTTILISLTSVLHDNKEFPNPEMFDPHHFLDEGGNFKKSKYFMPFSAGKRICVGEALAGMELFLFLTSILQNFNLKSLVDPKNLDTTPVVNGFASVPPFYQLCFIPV

Sample answers from the record:
[
  {
    "compound": "CN(C)c1ncnc2ccc(-c3cccnc3)cc12",
    "AC50": "1.26 µM (inconclusive)"
  },
  {
    "compound": "COc1ccc(C(=O)N2CCC3(CCCN(C(=O)Nc4cccc(C#N)c4)C3)CC2)cc1",
    "AC50": "39.8 µM (inconclusive)"
  },
  {
    "compound": "O=S(=O)(NCCCCCCc1ccccc1)c1cccc2c(Cl)cccc12",
    "AC50": "5.01 µM (inconclusive)"
  },
  {
    "compound": "O=C(CN(CC1CCCO1)C(=O)CNS(=O)(=O)c1ccc(Cl)cc1)NCCc1ccccc1 (stereo unspecified)",
    "AC50": "22.4 µM (inconclusive)"
  },
  {
    "compound": "CCOP(=O)(OCC)C(NC(=O)C(Cl)Cl)C(Cl)(Cl)Cl (stereo unspecified)",
    "AC50": "39.8 µM (inconclusive)"
  }
]

For every item in the list below, what is its measured AC50?
1. Cc1ccc(CNC(=O)C2CCCN2C(=O)NCc2ccccc2)cc1 (stereo unspecified)
2. O=C(c1ccccc1F)c1cn(Cc2ccccc2)c2ccccc12

1: 11.2 µM (inconclusive); 2: 35.5 µM (inconclusive)

For every item in the list below, what is its measured AC50?
1. Cc1nn(-c2ccccc2)c(Cl)c1/C=N/NC(=O)c1ccco1
2. Cn1c(=O)c(-c2ccccc2)nc2cnc(N3CCNCC3)nc21
3. CC(C)CN1CCCC2(CCN(C(=O)c3cc(C(F)(F)F)cc(C(F)(F)F)c3)CC2)C1
4. O=C(c1cnccn1)N1CCC2(CCCN(c3ccccc3)C2)CC1
5. O=C(c1cnccn1)N1CCC2(CCCN(c3ccc(-c4ccccc4)cc3)C2)CC1
6. COc1ccc(CCNC(=O)C2CCN(S(=O)(=O)N3CC(C)CC(C)C3)CC2)cc1OC (stereo unspecified)
7. Nc1ccccc1S[C@@H](C[N+](=O)[O-])c1ccc2c(c1)OCO2
8. COn1c(-c2ccccc2)nc2c1CCc1nonc1-2

1: 22.4 µM (inconclusive); 2: 15.8 µM (inconclusive); 3: 39.8 µM (inconclusive); 4: 39.8 µM (inconclusive); 5: 12.6 µM (inconclusive); 6: 22.4 µM (inconclusive); 7: 6.31 µM (inconclusive); 8: 25.1 µM (inconclusive)

For every item in the list below, what is its measured AC50?
1. COc1ccc2[nH]cc(CCNc3ccnc(-c4cccc(NS(C)(=O)=O)c4)n3)c2c1
2. CCOC(=O)c1ccc(S(=O)(=O)N2CCN(C)CC2)cc1
3. Nc1c(-c2cccs2)cnn1-c1nc(-c2ccc(Cl)cc2Cl)cs1

1. 0.126 µM (inconclusive)
2. 39.8 µM (inconclusive)
3. 20 µM (inconclusive)

For every item in the list below, what is its measured AC50?
1. Nc1nc(CSc2nnnn2-c2ccc(Cl)cc2)nc(N2CCOCC2)n1
2. O=C(NCCc1ccccn1)c1cc(C(=O)C2CCCCC2)c[nH]1
3. CCNc1ncc2nc(CCc3ccccc3)c(=O)n(C3CC3)c2n1

["5.62 µM (inconclusive)", "0.158 µM (inconclusive)", "3.98 µM (inconclusive)"]

* * *

Consider the following compounds; for each one, report its EC50.
- target entity: Protein RecA (Mycobacterium tuberculosis)
- Sequence (P9WHJ3 whole entry): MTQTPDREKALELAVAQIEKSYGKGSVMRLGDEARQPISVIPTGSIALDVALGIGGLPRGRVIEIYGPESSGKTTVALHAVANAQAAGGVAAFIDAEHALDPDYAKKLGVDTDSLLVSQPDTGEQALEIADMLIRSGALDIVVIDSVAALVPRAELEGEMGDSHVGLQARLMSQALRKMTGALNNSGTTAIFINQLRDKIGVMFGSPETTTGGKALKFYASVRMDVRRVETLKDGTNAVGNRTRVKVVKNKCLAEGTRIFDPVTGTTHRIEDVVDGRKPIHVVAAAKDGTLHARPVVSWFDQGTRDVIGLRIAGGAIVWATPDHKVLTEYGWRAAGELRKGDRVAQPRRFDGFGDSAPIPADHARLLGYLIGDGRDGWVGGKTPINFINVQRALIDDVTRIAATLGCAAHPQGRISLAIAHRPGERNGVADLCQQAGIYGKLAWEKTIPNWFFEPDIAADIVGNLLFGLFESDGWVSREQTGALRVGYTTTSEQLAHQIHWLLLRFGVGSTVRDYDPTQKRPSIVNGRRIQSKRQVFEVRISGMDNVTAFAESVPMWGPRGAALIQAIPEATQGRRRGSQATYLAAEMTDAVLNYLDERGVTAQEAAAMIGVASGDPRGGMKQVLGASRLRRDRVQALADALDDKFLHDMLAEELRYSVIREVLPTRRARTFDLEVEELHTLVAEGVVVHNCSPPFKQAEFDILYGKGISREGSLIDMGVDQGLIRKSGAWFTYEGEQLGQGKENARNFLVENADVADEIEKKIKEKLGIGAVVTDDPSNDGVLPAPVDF
- experiment notes: Fluorescence Cell-Free Homogeneous Dose Retest to Identify Inhibitors of RecA-Intein Splicing Activity. [Related pubchem assays (depositor defined):AID2097, AID2223, AID489010, AID492950]
- Format: functional
The source made the active and inactive calls.

For every item in the list below, what is its measured EC50?
1. Cc1n[nH]c(O)c1C(c1ccc(O)c(Br)c1)c1c(C)n[nH]c1O
2. N#CC(c1ccccc1)c1cnccn1 (stereo unspecified)
3. COC(=O)c1sc(-c2ccc(C(C)(C)C)cc2)cc1NC(=O)/C=C/C(=O)O

["0.232 µM (active)", "> 380 µM (inactive)", "0.701 µM (active)"]

For every item in the list below, what is its measured EC50?
1. CC1=NN(Cc2ccccc2)C(=O)/C1=C\c1ccc(N(C)C)cc1
2. CC1=NN(c2ccccc2)C(=O)C1

1: > 380 µM (inactive); 2: 2.95 µM (active)

For every item in the list below, what is its measured EC50?
1. Oc1cccc(Nc2nc(-c3ccccc3Cl)nc3ccccc23)c1
2. N#CC1=C(N)Oc2[nH]nc(-c3cccs3)c2C1c1ccncc1 (stereo unspecified)

1: > 380 µM (inactive); 2: 5.36 µM (active)

For every item in the list below, what is its measured EC50?
1. FC(F)(F)c1ccc(C2[C@H]3CN(Cc4cccnc4)[C@H](c4ccccc4)C34CC2(c2cccnc2)C4)cc1 (stereo partly specified)
2. CCCOC(=O)c1ccc(OC(=O)c2ccco2)cc1
3. O=C(N/N=C/c1ccc(-c2ccccc2[N+](=O)[O-])o1)[C@H]1C[C@@H]1c1ccccc1
4. CCN(Cc1ccccc1)S(=O)(=O)c1ccc(C(=O)N(CCCN(C)C)c2nc3cc(C)cc(C)c3s2)cc1

1: 24.1 µM (active); 2: 11.8 µM (active); 3: 18.9 µM (active); 4: 17.7 µM (active)
